pIC50: −log10 of the molar value.
What follows is literature data on pIC50 for UniProtKB P34947.

Sample answers from the record:
- Cc1[nH]c(/C=C2\C(=O)Nc3ccc(C(=O)N[C@H](C)c4ccccc4)cc32)c(C)c1C(=O)NCC1CC(=O)c2ccccc2O1 (stereo partly shown): 7.00 to 9.00
- O=C(NCc1cccnc1)c1cc([C@@H]2CCNC[C@H]2COc2ccc3c(c2)OCO3)ccc1F: 4.12
- Cc1[nH]c(/C=C2\C(=O)Nc3ccc(C(=O)N[C@H](C)c4ccccc4)cc32)c(C)c1C(=O)NC[C@H]1CCCO1: 7.00 to 9.00

Lookup: # lookup: UniProtKB P34947 pIC50, key = Cc1[nH]c(/C=C2\C(=O)Nc3ccc(C(=O)N[C@H](C)c4ccccc4)cc32)c(C)c1C(=O)NCc1ccco1
Found: 7.00 to 9.00

Lookup: # lookup: UniProtKB P34947 pIC50, key = COCO[C@@H]1Cc2ccccc2[C@H]1NC(=O)c1c(C)[nH]c(/C=C2\C(=O)Nc3ccc(C(=O)N[C@H](C)c4ccccc4)cc32)c1C
Found: < 5.00

Lookup: # lookup: UniProtKB P34947 pIC50, key = Cc1[nH]c(/C=C2\C(=O)Nc3ccc(C(=O)N[C@H](C)c4ccccc4)cc32)c(C)c1C(=O)NC1CCOC1 (mixture of isomers)
Found: 7.00 to 9.00

Lookup: # lookup: UniProtKB P34947 pIC50, key = Cc1[nH]c(/C=C2\C(=O)Nc3ccc(C(=O)N[C@H](C)c4ccccc4)cc32)c(C)c1C(=O)N1CCC[C@H]1CN1CCCC1
Found: 6.00 to 7.00
